System: Raji
ASSAY PROTOCOL: Inhibition of 12-O-tetradecanoylphorbol-13-acetate-induced EBV-early antigen activation in human Raji cells assessed as early antigen induction at 10 molar ratio after 48 hrs by conventional indirect immunofluorescence technique relative to TPA
Type: cell-based
Parameters: scale not given: the % may be the effect or the level left
CONDITION: human gammaherpesvirus 4
We begin with a simple list: items and their reported Activity.
ASSAY METRIC: Activity (%)

COMPOUND: C[C@@H](C/C=C/C(C)(C)O)[C@@H]1CC[C@]2(C)[C@H]3CC[C@@]4(C(C)(C)O)OCCC[C@H]4[C@]3(C)CC[C@@]12C [(23E)-23-DEHYDRO-25-HYDROXYSUNPOLLENOL]
ASSAY METRIC: Activity
QUANTITY UNIT: %
ENDPOINT VALUE: 90

COMPOUND: C[C@@H](CC[C@@H]1OC1(C)C)[C@@H]1CC[C@]2(C)[C@H]3CC[C@@]4(C(C)(C)O)OCCC[C@H]4[C@]3(C)CC[C@@]12C
ASSAY METRIC: Activity
QUANTITY UNIT: %
ENDPOINT VALUE: 97.4

COMPOUND: CC1=C(/C=C/C(C)=C/C=C/C(C)=C/C=C/C=C(C)/C=C/C=C(C)/C=C/C2=C(C)CCCC2(C)C)C(C)(C)CCC1
ASSAY METRIC: Activity
QUANTITY UNIT: %
ENDPOINT VALUE: 100
